assay: molar heat capacity at constant pressure; conditions: 298.15 K; 101.33 kPa; Liquid; Small sample (50 mg) DSC
Assay readout: molar heat capacity at constant pressure (J/K/mol)

{"columns": ["Molecule", "Experimental result"],
 "data": [
  ["CCn1cc[n+](C)c1.O=S(=O)([O-])C(F)(F)F [1-ethyl-3-methylimidazolium trifluoromethanesulfonate]", 363.2],
  ["CCCCn1cc[n+](C)c1.COS(=O)(=O)[O-] [1-butyl-3-methylimidazolium methyl sulfate]", 416.2],
  ["CCOS(=O)(=O)[O-].CCn1cc[n+](C)c1 [1-ethyl-3-methylimidazolium ethyl sulfate]", 394.4],
  ["CCCCn1cc[n+](C)c1.O=S(=O)([O-])C(F)(F)F [1-butyl-3-methylimidazolium trifluoromethanesulfonate]", 424.1],
  ["O", 75.3]
]}
